experiment: Cytotoxic activity on Vero cells (WST-1); conditions: African green monkey, pH 7.4
quantityMeasured: CC50 at 72 h (µg/mL)
Report the value in µg/mL with no unit label.

Value lookup for CC50 at 72 h; key = C=C(C)[C@H]1CC=C(C)C(=O)C1 [Carvone, S (+) carvone]
240

----------
Measured CC50 at 72 h accompanies every entry in the list below.
test: Cytotoxic activity on Vero cells (WST-1); conditions: African green monkey, Vero cells (ATCC CCL-81), kidney, pH 7.4
Report the value in µg/mL with no unit label.

Value lookup for CC50 at 72 h; key = O=C(Cn1ccnc1[N+](=O)[O-])NCc1ccccc1 [BNZ, Benznidazole, reference compound]
139

Value lookup for CC50 at 72 h; key = CC(C)=CCCC(C)=CC=O (mixture of isomers)
90
